Measured cell count rep 3 accompanies every entry in the list below.
- System: HeLa cells
- Assay Summary: Compound screen by flow cytometry: HeLa cell count as surrogate readout of cell viability (z-scoreHeLa)
- Type: cell-based, human
- Condition Info: PKIS compounds raw data; replicate 3; HeLa cell count

[
  {
    "Compound": "[O-][S+]1CCN(Cc2ccc(-c3ccc4ncnc(Nc5ccc(OCc6ccccc6)c(F)c5)c4c3)o2)CC1 [GW576924A]",
    "cell count rep 3": 7054
  },
  {
    "Compound": "CN(C)c1cc2c(Nc3ccc4c(cnn4Cc4ccccc4)c3)ncnc2cn1 [GW282974X]",
    "cell count rep 3": 11155
  },
  {
    "Compound": "CC(C)c1nc(-c2cccc(NS(=O)(=O)c3c(F)cccc3F)c2F)c(-c2ccnc(Nc3ccc(N4CCOCC4)nc3)n2)s1 [GSK2008607A]",
    "cell count rep 3": 3860
  },
  {
    "Compound": "CS(=O)(=O)CCNCc1ccc(-c2ccc3ncnc(Nc4ccc(OCc5ccccc5)c(Br)c4)c3c2)o1 [GW580496A]",
    "cell count rep 3": 11366
  },
  {
    "Compound": "Cc1cn2c(=O)cc(N3CCOCC3)nc2n1Cc1cccc(Cl)c1Cl [GSK2334006A]",
    "cell count rep 3": 5208
  },
  {
    "Compound": "[O-][S+]1CCN(Cc2ccc(-c3ccc4ncnc(Nc5ccc(OCc6ccccc6)c(Cl)c5)c4c3)o2)CC1 [GW583373A]",
    "cell count rep 3": 7863
  },
  {
    "Compound": "Cc1cc(NCC(c2ccccc2)c2ccccc2)nc(NCc2ccc(C(F)(F)F)cc2)n1 [GW497681X]",
    "cell count rep 3": 2577
  },
  {
    "Compound": "Cc1n[nH]c2cc(Nc3ccnc(Nc4cccc(CN5CCOCC5)c4)n3)ccc12 [GW682569X]",
    "cell count rep 3": 4807
  }
]

---

- System: HeLa cells
- Assay Summary: Compound screen by flow cytometry: HeLa cell count as surrogate readout of cell viability (z-scoreHeLa)
- Type: cell-based, human
- Condition Info: PKIS compound screen, Yes/No call on z-scoreHeLa

[
  {
    "Compound": "CN(C)CCCNc1nccc(-c2c(-c3ccc(F)cc3)nn3cc(C(F)(F)F)ccc23)n1 [GW618013A]",
    "System": "HeLa cells",
    "cell death": "No"
  },
  {
    "Compound": "COC(=O)c1cccc(NC(=O)NC2CCN(c3ccnc(NCc4ccc(F)cc4)n3)CC2)c1 [GSK1379860A]",
    "System": "HeLa cells",
    "cell death": "No"
  },
  {
    "Compound": "CCS(=O)(=O)c1ccc(OC)c(Nc2ncc(-c3cccc(-c4ccccc4F)c3)o2)c1 [GW678313X]",
    "System": "HeLa cells",
    "cell death": "No"
  },
  {
    "Compound": "COC(=O)c1cccc(NC(=O)NC2CCN(c3ccnc(Nc4ccc(OC)cc4)n3)C2)c1 (stereo not shown) [GSK1379746A]",
    "System": "HeLa cells",
    "cell death": "No"
  },
  {
    "Compound": "OCCCNc1nccc(-c2c(-c3ccc(F)cc3)nn3cc(C(F)(F)F)ccc23)n1 [GW569293E]",
    "System": "HeLa cells",
    "cell death": "No"
  },
  {
    "Compound": "COc1cc(Nc2nccc(N3CCC(NC(=O)c4cc5ccccc5s4)C3)n2)cc(OC)c1OC (stereo not shown) [GSK1379760A]",
    "System": "HeLa cells",
    "cell death": "No"
  },
  {
    "Compound": "O=C(O[C@H]1CN[C@H](C#Cc2cc3ncnc(Nc4ccc5c(cnn5Cc5ccccc5)c4)c3s2)C1)N1CCOCC1 [GSK200398A]",
    "System": "HeLa cells",
    "cell death": "No"
  },
  {
    "Compound": "O=C1Nc2ccc(C(=O)c3ccco3)cc2C1=Cc1cc(Cl)c(O)c(Cl)c1 [GW406108X]",
    "System": "HeLa cells",
    "cell death": "No"
  },
  {
    "Compound": "Cc1cc(NCC(c2ccccc2)c2ccccc2)nc(NCc2ccc(C(F)(F)F)cc2)n1 [GW497681X]",
    "System": "HeLa cells",
    "cell death": "No"
  },
  {
    "Compound": "COc1cc(Nc2nccc(N3CCC(NC(=O)Nc4ccc5c(c4)OCO5)C3)n2)cc(OC)c1OC (stereo not shown) [GSK1379766A]",
    "System": "HeLa cells",
    "cell death": "No"
  },
  {
    "Compound": "Cc1cc(O)cc(C)c1/C=C/c1cncc(C(N)=O)c1 [GW435821X]",
    "System": "HeLa cells",
    "cell death": "No"
  },
  {
    "Compound": "CCn1c(-c2nonc2N)nc2c(C#CC(C)(C)O)nc(OC[C@@H](N)c3ccccc3)cc21 [GSK938890A]",
    "System": "HeLa cells",
    "cell death": "No"
  },
  {
    "Compound": "Cc1ccc(NC(=O)c2ccnc(N3CCN(C)CC3)c2)cc1-c1ccc(C(=O)NCC2CC2)cc1 [GW775604X]",
    "System": "HeLa cells",
    "cell death": "No"
  },
  {
    "Compound": "CS(=O)(=O)CCNCc1cc(-c2cc3c(Nc4ccc(OCc5cccc(F)c5)c(Cl)c4)ncnc3s2)cs1 [GSK300014A]",
    "System": "HeLa cells",
    "cell death": "No"
  },
  {
    "Compound": "COc1ccc(Nc2nccc(N3CCC(NC(=O)Nc4cccc(C(C)=O)c4)C3)n2)cc1 (stereo not shown) [GSK1379731A]",
    "System": "HeLa cells",
    "cell death": "No"
  },
  {
    "Compound": "COc1cc2ncn(-c3cc(OCc4ccccc4C(F)(F)F)c(C(=O)N(C)C)s3)c2cc1OC [GSK1030062A]",
    "System": "HeLa cells",
    "cell death": "No"
  }
]

---

Measured z-scoreHeLa rep 1 accompanies every entry in the list below.
- System: HeLa cells
- Assay Summary: Compound screen by flow cytometry: HeLa cell count as surrogate readout of cell viability (z-scoreHeLa)
- Type: cell-based, human
- Condition Info: compound screen, HeLa cell count, replicate 1
- Protocol: The cells were resuspended in cell culture medium without antibiotics, seeded with 10,000 cells/well into Costar flat-bottom 96-well plates (Corning, Amsterdam, the Netherlands), and were incubated overnight at 37°C/5% CO2. […] The calculated mean MOI throughout all experiments was 6.8 ± 4.6 (mean ± SD). […] HeLa cells were harvested by trypsinization and fixed with 1% paraformaldehyde. Samples were measured on a FACSLyric with HTS extension (BD Biosciences). […]
Test Readout: z-scoreHeLa rep 1

[
  {
    "Molecule": "CS(=O)(=O)CCNCc1nc(-c2ccc3ncnc(Nc4ccc(F)c(Cl)c4)c3c2)cs1 [GW461104A]",
    "Obs Value": -2.12
  },
  {
    "Molecule": "Cc1n[nH]c2cc(Nc3ccnc(Nc4cccc(CN5CCOCC5)c4)n3)ccc12 [GW682569X]",
    "Obs Value": -2.45
  },
  {
    "Molecule": "CS(=O)(=O)Nc1ccc(N/C=C2\\C(=O)Nc3ccccc32)cc1 [GW278681X]",
    "Obs Value": -0.47
  },
  {
    "Molecule": "Cc1c(O)cccc1Nc1ccnc2ccc(C(F)(F)F)cc12 [GW466413A]",
    "Obs Value": -0.80
  },
  {
    "Molecule": "Oc1ccc2ncnc(Nc3ccc(OCc4ccccc4)cc3)c2c1 [GI262866A]",
    "Obs Value": 1.00
  }
]

---

- Tested on: HeLa cells
- Assay Summary: Compound screen by flow cytometry: HeLa cell count as surrogate readout of cell viability (z-scoreHeLa)
- Format: cell-based, human
- Condition Info: PKIS compound screen raw data, HeLa cell count, replicate 3
Measured cell count rep 3 accompanies every entry in the list below.

[
  {
    "Compound": "Cc1ccnc2ccc(-c3sc(N)nc3-c3ccccn3)nc12 [GW777257X]",
    "cell count rep 3": 3623
  },
  {
    "Compound": "CC(C)(C)c1ccc2nccc(Nc3cccc(O)c3)c2c1 [GW856795X]",
    "cell count rep 3": 35940
  },
  {
    "Compound": "Cc1cccc(-c2nc(Nc3ccc4c(cnn4C)c3)c3ccccc3n2)n1 [GW876731X]",
    "cell count rep 3": 25742
  },
  {
    "Compound": "COc1cc(Nc2nccc(N3CCC(NC(=O)Nc4cccc(C(C)=O)c4)C3)n2)cc(OC)c1OC (stereo not drawn) [GSK1379753A]",
    "cell count rep 3": 17453
  },
  {
    "Compound": "Cc1ccc(C)c(NC(=O)NCCNc2ccnc(Nc3ccc(F)cc3)n2)c1 [GSK1379878A]",
    "cell count rep 3": 18414
  },
  {
    "Compound": "Cc1c(O)cccc1Nc1ccnc2ccc(C(F)(F)F)cc12 [GW466413A]",
    "cell count rep 3": 4313
  },
  {
    "Compound": "COc1cc2nccc(Nc3cccc(Oc4ccccc4)c3)c2cc1OC [GW284543A]",
    "cell count rep 3": 39414
  },
  {
    "Compound": "c1ccc(-c2n[nH]cc2-c2ccnc(-c3ccc(CNC4CCOCC4)cc3)c2)nc1 [GW709213X]",
    "cell count rep 3": 22823
  },
  {
    "Compound": "Fc1cc(Cl)ccc1Nc1ccnc2cc(-c3ccc(CN4CCOCC4)o3)ccc12 [GW560109X]",
    "cell count rep 3": 23726
  },
  {
    "Compound": "Cc1cccc(Cn2ccn3c(=O)cc(N4CCOCC4)nc23)c1 [GSK2297542A]",
    "cell count rep 3": 25952
  },
  {
    "Compound": "[O-][S+]1CCN(Cc2ccc(-c3ccc4ncnc(Nc5ccc(OCc6cccc(F)c6)c(Cl)c5)c4c3)o2)CC1 [GW576609A]",
    "cell count rep 3": 40876
  },
  {
    "Compound": "Cc1ccc(C(=O)Nc2ccc(Nc3ccnc4cc(-c5ccccn5)ccc34)cc2O)cc1 [GW440146A]",
    "cell count rep 3": 6030
  }
]
